tested on: Entercoccus faecium 180-1; assay: MIC, standard broth micro-dilution assay; type: cell-based
propertyLabel: MIC

## Input # get_value(readout='MIC', item= CNC(CC(C)C)C(=O)NC1C(=O)NC(CC(N)=O)C(=O)NC2C(=O)NC3C(=O)NC(C(=O)NC(C(=O)O)c4cc(O)cc(O)c4-c4cc3ccc4O)C(OC3CC(C)(N)C(O)C(C)O3)c3ccc(c(Cl)c3)Oc3cc2cc(c3OC2OC(CO)C(O)C(O)C2OC2CC(C)(NCc3ccc(C(c4ccccc4)c4ccccc4)cc3)C(O)C(C)O2)Oc2ccc(cc2Cl)C1O (stereo not shown) [Compound 46, 4-diphenylmethylbenzyl] )
## Output ≤ 0.06 µg/mL

Data provenance is patent US5843889A.
